Data origin: ChEMBL document CHEMBL1127630

Items are presented alongside their recorded pIC50.
- System: Angiotensin-converting enzyme (Mus musculus)
- Sequence (P09470 whole entry): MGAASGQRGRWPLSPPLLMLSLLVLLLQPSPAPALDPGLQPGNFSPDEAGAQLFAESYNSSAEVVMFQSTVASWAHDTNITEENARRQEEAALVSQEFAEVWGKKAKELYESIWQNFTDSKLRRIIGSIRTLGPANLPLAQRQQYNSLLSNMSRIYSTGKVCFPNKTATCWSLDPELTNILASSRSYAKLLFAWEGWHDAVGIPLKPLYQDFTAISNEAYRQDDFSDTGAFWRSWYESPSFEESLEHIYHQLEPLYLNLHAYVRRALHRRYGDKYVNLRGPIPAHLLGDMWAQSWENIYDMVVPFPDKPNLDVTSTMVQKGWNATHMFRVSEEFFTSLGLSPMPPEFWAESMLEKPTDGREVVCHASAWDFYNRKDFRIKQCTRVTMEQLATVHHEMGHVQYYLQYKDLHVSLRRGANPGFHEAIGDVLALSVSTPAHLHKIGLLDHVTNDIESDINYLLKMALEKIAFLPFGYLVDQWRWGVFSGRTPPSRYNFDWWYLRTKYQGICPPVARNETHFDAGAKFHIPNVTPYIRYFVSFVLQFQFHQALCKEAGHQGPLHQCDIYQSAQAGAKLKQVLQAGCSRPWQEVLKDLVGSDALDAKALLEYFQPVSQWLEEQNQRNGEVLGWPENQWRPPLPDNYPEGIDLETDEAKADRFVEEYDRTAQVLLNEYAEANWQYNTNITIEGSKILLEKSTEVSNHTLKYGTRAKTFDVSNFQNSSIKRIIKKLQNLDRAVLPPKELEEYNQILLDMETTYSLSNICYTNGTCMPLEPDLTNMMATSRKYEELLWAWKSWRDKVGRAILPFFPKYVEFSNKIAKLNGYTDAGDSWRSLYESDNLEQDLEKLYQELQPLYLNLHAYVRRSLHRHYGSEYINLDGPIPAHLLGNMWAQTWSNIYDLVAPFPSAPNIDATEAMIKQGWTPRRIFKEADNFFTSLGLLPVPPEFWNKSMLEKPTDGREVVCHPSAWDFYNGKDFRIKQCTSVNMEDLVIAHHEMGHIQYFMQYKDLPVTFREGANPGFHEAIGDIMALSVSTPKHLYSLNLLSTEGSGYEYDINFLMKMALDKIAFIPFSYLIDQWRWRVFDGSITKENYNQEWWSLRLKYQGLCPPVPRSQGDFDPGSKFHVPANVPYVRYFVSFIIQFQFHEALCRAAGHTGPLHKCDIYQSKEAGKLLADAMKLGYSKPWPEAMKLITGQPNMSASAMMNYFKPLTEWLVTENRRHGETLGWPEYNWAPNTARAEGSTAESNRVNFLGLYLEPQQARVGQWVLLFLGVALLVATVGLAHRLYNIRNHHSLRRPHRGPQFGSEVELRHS
pIC50: −log10 of the molar value.
Attribute Measured: pIC50

- Molecule: "CC(c1ccc(N)cc1)C(CS)C(=O)NC(Cc1ccc(O)cc1)C(=O)O (stereo not drawn)"
  Attribute Measured: "pIC50"
  Quantitative Result: 7.92
- Molecule: "COc1ccc(C(C)C(CS)C(=O)NC(Cc2ccc(O)cc2)C(=O)O)cc1 (stereo not drawn)"
  Attribute Measured: "pIC50"
  Quantitative Result: 8.44
- Molecule: "CC(c1ccccc1)C(CS)C(=O)N[C@@H](C)C(=O)O (stereo partly drawn)"
  Attribute Measured: "pIC50"
  Quantitative Result: 7.70
- Molecule: "CC(c1ccccc1)C(CS)C(=O)NC(Cc1ccc(O)cc1)C(=O)O (stereo not drawn)"
  Attribute Measured: "pIC50"
  Quantitative Result: 8.37
- Molecule: "CC(NC(=O)C(CS)C(C)c1ccc(F)cc1)C(=O)O (stereo not drawn)"
  Attribute Measured: "pIC50"
  Quantitative Result: 8.00
- Molecule: "O=C(NC(Cc1ccc(O)cc1)C(=O)O)C(CS)Cc1ccccc1 (stereo not drawn)"
  Attribute Measured: "pIC50"
  Quantitative Result: 7.60
- Molecule: "CCC(NC(=O)C(CS)C(C)c1ccccc1)C(=O)O (stereo not drawn)"
  Attribute Measured: "pIC50"
  Quantitative Result: 8.27
- Molecule: "CC(NC(=O)C(CS)C(C)c1ccc(F)c(F)c1)C(=O)O (stereo not drawn)"
  Attribute Measured: "pIC50"
  Quantitative Result: 8.30
- Molecule: "CC(C)CC(NC(=O)C(CS)C(C)c1ccccc1)C(=O)O (stereo not drawn)"
  Attribute Measured: "pIC50"
  Quantitative Result: 7.72
- Molecule: "COc1ccc(C(C)C(CS)C(=O)NC(Cc2ccc(O)cc2)C(=O)O)cc1OC (stereo not drawn)"
  Attribute Measured: "pIC50"
  Quantitative Result: 8.40
- Molecule: "CC(c1ccc(F)c(F)c1)C(CS)C(=O)NC(Cc1ccc(O)cc1)C(=O)O (stereo not drawn)"
  Attribute Measured: "pIC50"
  Quantitative Result: 8.35
- Molecule: "CC(c1ccccc1)C(CS)C(=O)NC(COCc1ccccc1)C(=O)O (stereo not drawn)"
  Attribute Measured: "pIC50"
  Quantitative Result: 7.37
- Molecule: "CC(C)C(NC(=O)C(CS)C(C)c1ccccc1)C(=O)O (stereo not drawn)"
  Attribute Measured: "pIC50"
  Quantitative Result: 7.00
